Tested on: Ishikawa human endometrial tumor cells
Assay: Ishikawa alkaline phosphatase (PNPP) assay, antagonist mode
Type: cell-based
Conditions: Homo sapiens, Ishikawa, with E2 (1 nM)
Procedure: Ishikawa human endometrial tumor cells are maintained in MEM (minimum essential medium, with Earle's salts and L-Glutamine, Gibco BRL, Gaithersburg, Md.), supplemented with 10% fetal bovine serum (FBS) (V/V), (Gibco BRL). […] After a 20-minute incubation, plates are read on a spectophotometer at 405 nm. […] For the agonist mode, a % efficacy for each compound is calculated versus the response to tamoxifen. For the antagonist mode, a % efficacy for each compound is calculated versus E2 (1 nM) alone.
Structures can show the parent of a compound that is named as a salt.
observable: IC50 (nM)

[
  {
    "molecule": "COc1ccc2c3c(ccc2c1)-c1ccccc1COC3c1ccc(OCCN2CCCCC2)cc1 (stereo not drawn)",
    "testTarget": "Ishikawa human endometrial tumor cells",
    "IC50 / nM": 340
  }
]

a: Oc1ccc2c3c(sc2c1)-c1ccccc1COC3c1ccc(OCCN2CCCCC2)cc1 (stereo not drawn)
b: Oc1ccc2c3c(ccc2c1)-c1ccccc1COC3c1ccc(OCCN2CCCCC2)cc1 (stereo not drawn) [Example 4, trifluoroacetate]
query: So which one has the bigger IC50 here, a or b ? Answer by stating the label of the chosen item.
result: a
(a: 270 nM, b: 36 nM)
